Collected pIC50 values appear next to each entry.
# tested target: CYP3A4 (Homo sapiens (Human))
# Sequence (P08684 whole entry): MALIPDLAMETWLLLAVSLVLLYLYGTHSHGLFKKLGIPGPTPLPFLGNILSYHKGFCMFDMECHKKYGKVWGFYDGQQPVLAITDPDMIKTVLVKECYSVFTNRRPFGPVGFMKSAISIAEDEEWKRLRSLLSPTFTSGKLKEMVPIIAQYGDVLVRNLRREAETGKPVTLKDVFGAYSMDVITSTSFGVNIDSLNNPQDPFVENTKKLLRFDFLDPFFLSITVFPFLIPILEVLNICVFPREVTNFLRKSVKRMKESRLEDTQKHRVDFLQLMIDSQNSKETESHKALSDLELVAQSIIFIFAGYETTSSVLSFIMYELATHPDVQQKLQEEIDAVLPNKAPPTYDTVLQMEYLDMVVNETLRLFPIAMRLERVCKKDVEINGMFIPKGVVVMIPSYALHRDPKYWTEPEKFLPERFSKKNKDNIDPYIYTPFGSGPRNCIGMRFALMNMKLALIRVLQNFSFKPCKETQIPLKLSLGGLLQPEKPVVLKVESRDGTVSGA
# experiment description: CYP3A4 inhibitory activity: Luciferin-IPA (P450-Glo) assay with human liver microsome
pIC50: −log10 of the molar value.

Worked set:
{"smiles code": "COc1cc(NC(=O)c2cc(=O)c3ccccc3o2)c(-c2nnn(-c3ccc(CCN4CCc5cnccc5C4)cc3)n2)cc1OC", "tested target": "CYP3A4 (Homo sapiens (Human))", "pIC50": "6.00 to 6.30"}
{"smiles code": "COc1cc(NC(=O)c2cnc3ccccc3c2)c(-c2nnn(-c3ccc(CCN4CCc5cnccc5C4)cc3)n2)cc1OCc1ccccc1", "tested target": "CYP3A4 (Homo sapiens (Human))", "pIC50": "6.00 to 6.30"}
{"smiles code": "COc1cc(NC(=O)c2cc(=O)c3ccccc3o2)c(-c2nnn(-c3ccc(CCN4CCc5cc(-n6ccnc6)ccc5C4)cc3)n2)cc1OC", "tested target": "CYP3A4 (Homo sapiens (Human))", "pIC50": "6.60 to 7.00"}
{"smiles code": "COc1cc(NC(=O)c2cnc3ccccc3c2)c(-c2nnn(-c3ccc(CCN(Cc4cccc(-n5ccnc5)c4)Cc4ccc5c(cnn5C)c4)cc3)n2)cc1OC", "tested target": "CYP3A4 (Homo sapiens (Human))", "pIC50": "6.00 to 6.30"}
{"smiles code": "COc1cc2c(cc1OC)CN(CCc1ccc(-n3nnc(-c4cc(OC)c(OC)cc4NC(=O)c4ccc(-n5ccnc5)cc4)n3)cc1)CC2", "tested target": "CYP3A4 (Homo sapiens (Human))", "pIC50": "6.00 to 6.30"}

Field: next molecule
Task: Return the recorded pIC50 value; entry: COc1cc(NC(=O)c2cc(=O)c3ccccc3o2)c(-c2nnn(-c3ccc(CCN(Cc4cccc(-n5ccnc5)c4)Cc4ccc5c(cnn5C)c4)cc3)n2)cc1OC
Output: 6.00 to 6.30

All figures here come from patent US11739089B2.
